Study System: EP4 (Homo sapiens, UniProt P35408)
Construct: also expresses a promiscuous G protein and a clytin variant
Sequence (P35408 whole entry): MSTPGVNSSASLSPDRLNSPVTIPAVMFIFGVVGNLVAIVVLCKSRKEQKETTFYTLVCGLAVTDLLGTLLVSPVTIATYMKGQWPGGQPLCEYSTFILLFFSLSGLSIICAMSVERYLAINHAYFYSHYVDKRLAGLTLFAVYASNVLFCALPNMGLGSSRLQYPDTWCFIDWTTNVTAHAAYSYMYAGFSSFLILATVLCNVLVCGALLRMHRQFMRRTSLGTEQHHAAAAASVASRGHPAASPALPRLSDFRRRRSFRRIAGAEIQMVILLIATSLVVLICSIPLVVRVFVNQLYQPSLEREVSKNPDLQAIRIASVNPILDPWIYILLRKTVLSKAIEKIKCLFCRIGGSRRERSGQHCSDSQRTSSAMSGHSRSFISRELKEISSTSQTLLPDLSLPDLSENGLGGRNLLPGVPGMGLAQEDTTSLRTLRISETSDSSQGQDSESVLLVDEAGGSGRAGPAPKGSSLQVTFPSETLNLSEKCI
Protocol Notes: EP4 Ca2+-flux assay (functional calcium flux assay, stably transfected HEK293 cells)
Condition Details: HEK293 cells stably transfected with EP4; ligand PGE2 10 nM; luminescence readout
Below is a list of entries, each paired with its recorded IC50 value.
Readout: IC50

{"columns": ["Compound", "Value Reported"],
 "data": [
  ["O=C(NC1CC2(C1)CC(C(=O)O)C2)c1cccc2ncn(Cc3ccc(C(F)(F)F)cc3)c12 (racemic) [Example 13]", "32 nM"],
  ["[2H]C([2H])(c1ccc(C(F)(F)F)cc1)n1ccc2cccc(C(=O)NC34CC(CC(=O)O)(C3)C4)c21 [Example 7]", "2 nM"],
  ["O=C(NC1CC2(C1)CC(C(=O)O)C2)c1c(F)ccc2ccn(Cc3ccc(C(F)(F)F)cc3)c12 (racemic) [Example 23]", "0.3 nM"],
  ["O=C(NC1CC2(C1)CC(C(=O)O)C2)c1cccc2ccn(Cc3ccc(S(F)(F)(F)(F)F)cc3)c12 (racemic) [Example 30]", "0.2 nM"]
]}
